These data points were gathered from the supplement of paper PMC10567573.

B1: TOR1AIP2 (parent)
chain: AGQEGEDTLRRRLLAPEAGSHPQQ

Variants of: B1
PROTOCOL: protein stability index of a GFP-peptide fusion (GPS, HEK-293T) (PSI 1-6); higher = more stable;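 further: lentivirally expressed fusions sorted by FACS into six bins by GFP to DsRed ratio, PSI derived from sequencing read proportions per bin multiplied by bin number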
TEST_CONDITIONS: c terminus: a fixed tail appended
// map protein stability index to label using low group = under 2, middle group = from 2 up to 3, high group = 3 and over

Examples with answers:
- AGQEGEDTLRHRLLAPEAGSHPQQ [R11H]: middle group
- AGQEGEDTLRRRLLAPEAGSHMQQ [P22M]: middle group

**Query** Class (by measured protein stability index) for ACQEGEDTLRRRLLAPEAGSHPQQ [G2C]
**Result** low group

**Query** Class (by measured protein stability index) for AGQEGEDTLRMRLLAPEAGSHPQQ [R11M]
**Result** middle group

**Query** Class (by measured protein stability index) for AGQEGEDTLRRRLLAPEAGYHPQQ [S20Y]
**Result** middle group

**Query** Class (by measured protein stability index) for AGQEGEDTLRRRLLAPFAGSHPQQ [E17F]
**Result** high group

**Query** Class (by measured protein stability index) for AGQEGEDTLRRRLLAPEAGSHEQQ [P22E]
**Result** middle group

**Query** Class (by measured protein stability index) for AGREGEDTLRRRLLAPEAGSHPQQ [Q3R]
**Result** low group

**Query** Class (by measured protein stability index) for AGQEGEDTLRRRLLAPEAASHPQQ [G19A]
**Result** middle group

**Query** Class (by measured protein stability index) for AGQFGEDTLRRRLLAPEAGSHPQQ [E4F]
**Result** low group

**Query** Class (by measured protein stability index) for AGQECEDTLRRRLLAPEAGSHPQQ [G5C]
**Result** high group

**Query** Class (by measured protein stability index) for AGQEGEDTLRRRLLWPEAGSHPQQ [A15W]
**Result** high group

**Query** Class (by measured protein stability index) for AGQEGEDTLWRRLLAPEAGSHPQQ [R10W]
**Result** high group
